Dear all, this message contains pIC50 results, target or system UniProt Q16613.
Sequence (Q16613 whole entry): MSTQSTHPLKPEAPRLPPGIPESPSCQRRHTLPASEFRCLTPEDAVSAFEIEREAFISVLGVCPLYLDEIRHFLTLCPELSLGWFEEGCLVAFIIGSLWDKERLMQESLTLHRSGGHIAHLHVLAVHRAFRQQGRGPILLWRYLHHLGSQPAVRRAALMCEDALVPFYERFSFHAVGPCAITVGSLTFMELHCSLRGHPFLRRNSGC
API: returns pIC50 as number; meaning -log10 of concentration in mol/L.

Would you please look over these solved cases?
O=C(CBr)NCCc1csc2ccccc12 [AANAT Inhibitor, 8e]    6.17
COc1ccc2occ(CCNC(=O)CBr)c2c1 [AANAT Inhibitor, 8c]    4.40
O=C(CBr)NCCc1c[nH]c2ccccc12    5.84

Q: Which pIC50 reading was recorded for the compound O=C(CBr)NCCc1csc2ccc(O)cc12 [AANAT Inhibitor, 12d] ?
Result: 6.74

Measured values drawn from BindingDB's records for doi:10.1080/1475636021000005721 for this set.
